Please provide measured EC50 for the entries that follow.
- test_target: Progesterone receptor (Homo sapiens)
- Sequence (P06401 whole entry): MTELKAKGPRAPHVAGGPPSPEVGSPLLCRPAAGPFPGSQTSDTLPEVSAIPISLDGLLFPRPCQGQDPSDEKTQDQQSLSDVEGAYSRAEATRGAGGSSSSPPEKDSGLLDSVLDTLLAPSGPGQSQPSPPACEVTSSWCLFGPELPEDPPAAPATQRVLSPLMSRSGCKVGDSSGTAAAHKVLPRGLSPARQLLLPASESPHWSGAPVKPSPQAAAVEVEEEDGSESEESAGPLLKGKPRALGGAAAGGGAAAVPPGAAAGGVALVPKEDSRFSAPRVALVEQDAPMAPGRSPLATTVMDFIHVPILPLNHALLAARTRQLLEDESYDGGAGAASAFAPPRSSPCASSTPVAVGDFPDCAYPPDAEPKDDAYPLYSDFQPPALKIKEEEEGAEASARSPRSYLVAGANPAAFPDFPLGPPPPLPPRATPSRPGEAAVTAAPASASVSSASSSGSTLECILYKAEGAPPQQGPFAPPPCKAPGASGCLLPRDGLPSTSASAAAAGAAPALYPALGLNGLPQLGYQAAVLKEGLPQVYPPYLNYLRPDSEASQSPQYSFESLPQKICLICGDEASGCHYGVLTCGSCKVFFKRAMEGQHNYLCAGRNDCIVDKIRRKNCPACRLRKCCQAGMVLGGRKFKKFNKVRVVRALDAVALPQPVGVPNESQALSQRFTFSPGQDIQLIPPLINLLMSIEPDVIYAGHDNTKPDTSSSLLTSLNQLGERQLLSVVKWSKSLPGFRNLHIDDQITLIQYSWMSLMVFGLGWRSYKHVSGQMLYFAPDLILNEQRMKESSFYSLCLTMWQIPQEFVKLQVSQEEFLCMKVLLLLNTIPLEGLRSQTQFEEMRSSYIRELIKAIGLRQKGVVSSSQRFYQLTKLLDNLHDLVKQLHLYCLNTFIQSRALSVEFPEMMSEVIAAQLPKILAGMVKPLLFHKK
- assay_protocol: Agonist activity at progesterone receptor beta (unknown origin) by NH Pro assay

C[C@H](c1ccc(F)cc1)N1C(=O)O[C@](Cc2ccc(F)cc2)(C(=O)NCc2ccc(Cl)c(Cl)c2)C1=O > 20 µM

Then this compound:
Data request: Lab request: please report EC50 under test system Progesterone receptor (Homo sapiens) for COc1cc(CNC(=O)[C@@]2(Cc3ccccc3)OC(=O)N([C@@H]3CCc4ccccc43)C2=O)cc(OC)c1
Data returned: > 20 µM

----------
Provide the recorded pIC50 for the entries that follow.
- test_target: Mineralocorticoid receptor (Homo sapiens, UniProt P08235)
- Sequence (P08235 whole entry): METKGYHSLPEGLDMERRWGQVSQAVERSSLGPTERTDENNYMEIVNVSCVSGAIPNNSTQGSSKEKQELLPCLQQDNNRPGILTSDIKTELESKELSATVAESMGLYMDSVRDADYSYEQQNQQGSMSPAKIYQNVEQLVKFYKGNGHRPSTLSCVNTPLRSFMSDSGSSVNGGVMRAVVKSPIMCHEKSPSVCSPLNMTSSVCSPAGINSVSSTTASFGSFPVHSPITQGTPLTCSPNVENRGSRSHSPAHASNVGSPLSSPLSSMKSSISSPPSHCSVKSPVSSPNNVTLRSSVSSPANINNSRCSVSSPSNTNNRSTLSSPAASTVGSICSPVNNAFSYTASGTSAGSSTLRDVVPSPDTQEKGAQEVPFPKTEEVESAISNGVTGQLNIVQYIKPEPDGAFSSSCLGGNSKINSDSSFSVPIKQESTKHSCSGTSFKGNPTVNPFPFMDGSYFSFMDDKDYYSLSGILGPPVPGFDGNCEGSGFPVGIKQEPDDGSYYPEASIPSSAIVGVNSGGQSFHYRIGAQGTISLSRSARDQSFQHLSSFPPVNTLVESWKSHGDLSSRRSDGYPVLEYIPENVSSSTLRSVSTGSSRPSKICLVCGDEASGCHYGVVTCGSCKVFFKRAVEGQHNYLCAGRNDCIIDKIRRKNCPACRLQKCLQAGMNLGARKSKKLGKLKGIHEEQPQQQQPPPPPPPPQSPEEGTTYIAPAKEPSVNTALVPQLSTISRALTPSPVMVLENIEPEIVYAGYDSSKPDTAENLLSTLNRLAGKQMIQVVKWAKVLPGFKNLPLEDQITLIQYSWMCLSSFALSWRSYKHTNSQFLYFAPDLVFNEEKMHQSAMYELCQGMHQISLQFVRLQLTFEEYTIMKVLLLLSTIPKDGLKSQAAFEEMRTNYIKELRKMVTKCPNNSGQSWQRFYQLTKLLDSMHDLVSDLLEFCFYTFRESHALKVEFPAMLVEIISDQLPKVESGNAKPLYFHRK
Answers are plain numbers, as −log10 of the molar value.

structure_smiles	val
COc1cc(CNC(=O)[C@@]2(Cc3ccccc3)OC(=O)N([C@@H](C)c3ccccc3)C2=O)cc(OC)c1	6.30

Now let's try a different one.
Data request: Quick one: pIC50 for C[C@H](c1ccccc1)N1C(=O)O[C@](Cc2ccccc2)(C(=O)NCc2cccc(C(F)(F)F)c2)C1=O ?
Data returned: 6.30
